# tested-target: Hexose transporter 1 (Plasmodium falciparum) (UniProt O97467)
# experimental-protocol: ST_JUDE_LEISH: Cytotoxicity at 2uM final concentration against transgenic Leishmania Mexicana promastigotes LmPfHT that are glucose transport deficient and complemented with the Plasmodium falciparum hexose transporter. Activity is measured by DNA content using SYBR green in vitro
# Type: functional
readout-type: inhibition (%)
Provide only the numeric value, understood in %.

Lookup: Give Hexose transporter 1 (Plasmodium falciparum) (UniProt O97467) inhibition for the following molecule: CCc1nc2c(cnn2CC)c(NC2CCOCC2)c1CNC(=O)c1ccoc1C
Found: 6.38

Lookup: Consider the molecule CCc1ccc(OCc2ccccc2C(=O)Nc2ccc3nc(C)cc(N)c3c2)cc1 tested on Hexose transporter 1 (Plasmodium falciparum) (UniProt O97467); state its inhibition.
Found: 2.87

Lookup: Determine reported inhibition for CCCCCCN(CCCCCC)CC(O)c1c(OC)ccc2ccccc12 (stereo unspecified) ; test system: Hexose transporter 1 (Plasmodium falciparum) (UniProt O97467).
Found: 5.37

Lookup: Using Hexose transporter 1 (Plasmodium falciparum) (UniProt O97467) as the test system, report measured inhibition of CC(Cc1ccc(OCCCCOc2ccccc2)cc1)NCCc1ccc(Oc2ccccc2)cc1 (stereo unspecified) .
Found: 84.7

Lookup: Quote inhibition with test system Hexose transporter 1 (Plasmodium falciparum) (UniProt O97467) for CC(C)(C)OC(=O)Cn1cnc2cc(NC(=O)c3cc([N+](=O)[O-])cc([N+](=O)[O-])c3)ccc21
Found: 4.11

Lookup: // output inhibition; input CC(C)CNCc1cccc(-c2ccccc2CN(C(=O)NCCc2ccccc2)C2CCN(Cc3ccccc3)CC2)c1 ; system Hexose transporter 1 (Plasmodium falciparum) (UniProt O97467)
Found: 11.4

Lookup: Supply inhibition measured with Hexose transporter 1 (Plasmodium falciparum) (UniProt O97467) for CC(=NNC(=N)N)c1ccc2ccc3ccccc3c2c1 .
Found: 1.38

Lookup: Report inhibition on Hexose transporter 1 (Plasmodium falciparum) (UniProt O97467) for this entry: Cc1cc(N[C@@H](CC(C)C)C(=O)NCc2cccs2)nc(NCCc2ccccc2)n1
Found: 5.79

Lookup: State inhibition on Hexose transporter 1 (Plasmodium falciparum) (UniProt O97467). Entry: COc1cccc(CN2CCCC(OC(c3ccc(F)cc3)c3ccc(F)cc3)C2)c1O (stereo unspecified)
Found: 0.76

Lookup: Identify measured inhibition obtained with Hexose transporter 1 (Plasmodium falciparum) (UniProt O97467) for Clc1cnc2ccc3c(c2c1CCN1CCC(NCc2cc4c(cn2)OCCO4)CC1)OCCO3 .
Found: 42.2

Lookup: Give Hexose transporter 1 (Plasmodium falciparum) (UniProt O97467) inhibition for the following molecule: O=C(NCc1ccccc1)Nc1ccc(-c2cccc(-c3nc4cc(C(F)(F)F)ccc4[nH]3)c2)cc1
Found: -0.18
